subject of test: Fibroblast growth factor 2 (Homo sapiens, UniProt P09038)
Sequence (P09038 143-288 limits assumed): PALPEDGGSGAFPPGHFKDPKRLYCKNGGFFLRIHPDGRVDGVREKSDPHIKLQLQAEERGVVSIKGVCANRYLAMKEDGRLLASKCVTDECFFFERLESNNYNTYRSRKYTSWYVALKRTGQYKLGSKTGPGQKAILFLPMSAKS
protocol: Binding affinity for human fibroblast growth factor 2 in surface plasmon resonance (SPR) assay
molecules and their reported log10 Kd
In plain terms, each number is the log10 of measured Kd in µM.

Some entries whose results are on file:
| molecule | log10 Kd |
| --- | --- |
| CO[C@H]1O[C@@H](COCC(=O)N(CC(=O)NC2CCCCC2)Cc2ccccc2)[C@@H](OS(=O)(=O)O)[C@H](OS(=O)(=O)O)[C@H]1OS(=O)(=O)O | 2.30 |
| CC(C)(CC(=O)N(CCO[C@H]1O[C@@H](COS(=O)(=O)O)[C@@H](OS(=O)(=O)O)[C@H](OS(=O)(=O)O)[C@H]1OS(=O)(=O)O)CC(=O)NC1CCCCC1)CC(=O)N(CCO[C@H]1O[C@@H](COS(=O)(=O)O)[C@@H](OS(=O)(=O)O)[C@H](OS(=O)(=O)O)[C@H]1OS(=O)(=O)O)CC(=O)NC1CCCCC1 | 1.53 |
| CO[C@H]1O[C@@H](COCC(=O)N(CCS(=O)(=O)O)CC(=O)NC2CCCCC2)[C@@H](OS(=O)(=O)O)[C@H](OS(=O)(=O)O)[C@H]1OS(=O)(=O)O | 2.74 |
| O=C(CN(Cc1ccccc1)C(=O)C1OC(OS(=O)(=O)O)C(OS(=O)(=O)O)C(OS(=O)(=O)O)C1OS(=O)(=O)O)NC1CCCCC1 (configuration not stated) | 2.40 |
| O=C(CN(Cc1ccccc1)C(=O)C1OC(OS(=O)(=O)O)C(OS(=O)(=O)O)C(OS(=O)(=O)O)C1O)NC1CCCCC1 (configuration not stated) | 3.06 |

Now look at this entry.
Exercise: # query: log10 Kd of entry CO[C@H]1O[C@@H](COCC(=O)N(CC(=O)NCCO[C@H]2O[C@@H](COS(=O)(=O)O)[C@@H](OS(=O)(=O)O)[C@H](OS(=O)(=O)O)[C@H]2OS(=O)(=O)O)Cc2ccccc2)[C@@H](OS(=O)(=O)O)[C@H](OS(=O)(=O)O)[C@H]1OS(=O)(=O)O
Key: 1.20

* * *

subject of test: UniProt P09038
protocol: Binding affinity for human fibroblast growth factor 2 in surface plasmon resonance (SPR) assay (No binding)
metric: Kd

Exercise: # query: Kd of entry O=C(NC1CCCCC1)C(c1ccccc1)N(Cc1ccccc1)C(=O)C1OC(OS(=O)(=O)O)C(OS(=O)(=O)O)C(OS(=O)(=O)O)C1OS(=O)(=O)O (stereo unspecified)
Key: > 800 µM

* * *

compounds and their reported pKd
subject of test: UniProt P09038
protocol: Binding affinity for human fibroblast growth factor 2 in surface plasmon resonance (SPR) assay
Just so you know, pKd here is -log10 of the concentration in molar units; reply with that number alone.

Some entries whose results are on file:
| compound | subject of test | pKd |
| --- | --- | --- |
| O=C(CN(Cc1ccccc1)C(=O)C1OC(OS(=O)(=O)O)C(OS(=O)(=O)O)C(OS(=O)(=O)O)C1OS(=O)(=O)O)NCc1ccccc1 (centres undefined) | UniProt P09038 | 3.69 |
| CC(=O)N(CC(=O)NCCO[C@H]1O[C@@H](COS(=O)(=O)O)[C@@H](OS(=O)(=O)O)[C@H](OS(=O)(=O)O)[C@H]1OS(=O)(=O)O)Cc1ccccc1 | UniProt P09038 | 3.54 |
| O=C(CN(Cc1ccccc1)C(=O)CO[C@@H]1[C@H](OS(=O)(=O)O)O[C@H](COS(=O)(=O)O)[C@H](OS(=O)(=O)O)[C@H]1OS(=O)(=O)O)NCCO[C@H]1O[C@@H](COS(=O)(=O)O)[C@@H](OS(=O)(=O)O)[C@H](OS(=O)(=O)O)[C@H]1OS(=O)(=O)O | UniProt P09038 | 4.07 |

Now look at this entry.
Exercise: # query: pKd of entry CO[C@H]1O[C@@H](COCC(=O)N(CC(=O)NC2CCCCC2)[C@H]2CC[C@H](N(CC(=O)NC3CCCCC3)C(=O)COC[C@@H]3O[C@H](OC)[C@H](OS(=O)(=O)O)[C@@H](OS(=O)(=O)O)[C@@H]3OS(=O)(=O)O)CC2)[C@@H](OS(=O)(=O)O)[C@H](OS(=O)(=O)O)[C@H]1OS(=O)(=O)O
Key: 4.55
